test: soluble fraction after stress (log2 fold change); higher = more stays soluble; pooled small domains, quantitative proteomics; conditions: stress: 75 degC;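 also: 20 min heating vs room temperature control held 20 min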

entry sequence	soluble fraction (log2)
HMGMDALIGRRVFVSEEILPGDTGGRMAVDGDSWRAISVGTASNIPAGTEVRIRGHQSLVLEVEP	-0.169
HMSAQPMEYSRFYSDVTQGRVAEVEIEGREINGRLSTGERFKTFSPETDNKALIGHLLDNGVVIEGKPP	0.255
HMDFEEGAVKWFNTKKGYGFITRDQGDDIFVHFRNIKAQSRRSLTDGERVTFVVTEGDKGLQADHVSPV	-0.411
HMRFEWFDTLTDREKEIFGLIATGFDNQQIADRLQLAEQTVRNNISTIYSKLEVKDRFEIIRLANTI	-1.35
HMPHFFISTSDVNQDIITVSDKENFHHIARVLRSKVGETLLLVDENRTQYKVVIQNIDSKSITTKVVETLK	-0.925
HMATVTVPNLKGMTPSGAESALAELNLKGAVGDSVESNDVENGKVASQDQAAGSDAKEGDTITYHLSS	0.235
HMANPEFAGYINGKPYFGPTHQHRGVKMLGATHTRNPHPLVWDSIAESLANYDSRFRWSGGQIL	-0.853
HMKETLSINSTDFEVRRSSRRKRISVGFDTGTETFFIAAPTKLAGTDILRILGPQISRLMDRLT	-2.22
HMLEIRGFTVLLSDRGIVGIIEEIIQNPGQDLLRILSPEKREILVPLHSDLITGINKKKKTITMNLPDGL	-1.87
HMRDPLNTGFRQTLKDIVNSLPKNELYSPGVREEYIYPKIGVTSLGMEASMVLNGLISSRRKNIELKEKN	0.369
HMNVAVPTPADKRKVRVMKADINAKLRVNDANGAYAVYEELKEWVTLKGFTEWNDDLSKLSETMGSMKRKV	-0.601
HMDHFLRRFQVEGLNLEKLLRLAAEREMDLLQVRRSGRRMTGLVAEKRLPELEELAAQGGWALRLGEY	-0.843
HMSDYKSYLQELVQTDKKSLSYNVVKETGPAHDKTFEVEVEVDGIIYAHGVGKSKKEAEQNAAKNAIMISA	0.3
HMGEAAIYRINILINNLNVRSGPGTLYPRLRRADFPGEYDIFEEKNGFGRISNTKSEWVSLNTQYVQRLT	-2.8
HMTYNEYPEKEMQDLIDKSISQQEQAASQYGYSLGDYVTARYGFQSESDFREYVQGLAEDYMKEKI	-0.476
HMFDFMVLGQAIKKARESKEMTREQLAEILDVAPRHIQSIENEGQYPSFPLFIRLVTMFNISVDQY	-2.31
HMGVRDIRIFERNNSFFVNAEIRGEAQLSVPITRTDYQLFKENKIDALSLVEKYYAEELNASNEMK	0.234
HMAHSDEAWSVARRVARELDKILDGAGPRRTALVRAAAELRLSTRQIYNLLARYRADRTVTSLLPRR	-0.27
HMRSQLALVVRTGESQRLDNFLVNNLAWKSRNRLQGLIREGLVTVNGEKTKASRRVHLDDLVEIHL	-1.31
HMNKFKVNERVRVIATGEIGIVKGREILPVEGSKRVNIEYLVKVGNGFSNWKAFSKKELEPVR	-1.88
HMKNLDILTPKEIEVLNLVAKGYSNSKISKELDIAEVTVKKHIGSMFQKLDVKDRLSLALIL	-0.591
HMGLNPSILVKLGNANIKTIDNLADLASDELKEILEDISITSKEADEIIMRARSSWFEEDDKKEDNI	0.0765
HMSQESIMPNLVGSTEDEAKAIAVEYGFQLNVISRVNNSQYPAGVIIDQNVDEGVRIKAGYPVGVTIS	-0.237
HMGPSEVTLDNFVGKNYTDVVNDTSYQFTFKKEEKSDQTHAAGIIIAQSPKKGIKVKSNSTVTLTVSTG	0.359
HMIIYGLNPVKDFINLFPNKISTLFISKNKLSDSEMKSVVNINTVYVSDAELKRITGTTKHQSLAAEID	-1.2
HMSERQTGTVKWFNNAKGFGFITMADRPDDIFVHFRAIQGDGYRSLNEGEEVEFSLVEGPKGLQAEEVTK	-0.0682
HMVNSADLAAKPFIDLLVSTRQQLREAKQYDLADTIRDELTNHGITIEDKPQGSEWQYEFNPNS	0.0875
HMDSVFGVVTSSDGVKLRKEASTISKVLTVLPYGTEVDVDRIGSEWIRIVTDGGQKGYVSADYLAVREGER	0.682
HMGDSVLNDKLNTLAGLDEERFKWVLASLNPNNSYSTHSDKMSALMWLVSYFNDEADLKETVPPLPI	-0.189
HMTSKVTVLAVNGRITVSGKEQDETVSVYDTGGRLLYQGESDVINVPRKAMYIVTVSRKSYKVIV	-1.52
HMRNERDRQLYAAMEKLKAEYREALYLVYFENMSYRDAAAVMAQTEKQISNLVYRGKQSLKTILEQEGF	-2.6
HMTAGTGIAYSEFRSKVQEGQVKDVAIAPDRITGTLSSGQKFSTVPVNDPGLPKMLDDFNVKYSGQA	0.139
HMLINPLDILRNFNLSLYDDSRDSASNKEIDEIFESIKTNNSHIFSTLKAYRIPLPIASLIIKKIIKITLE	-0.891

The measured values listed here are drawn from the domain aggregation screens of Martell et al. (2025).
